# credit: patent US3954793A

system: Rutgers A strain house flies; test: topical application, percent kill after 24 hours, resistant Rutgers A strain; assay type: in vivo, female); settings: insecticide 0, synergist 5.0 μg/fly
Measured Endpoint: percent kill after 24 hours, synergist alone (%)
Report as a plain number; the unit % is understood.

Form entry - test system: Rutgers A strain house flies; read-out: percent kill after 24 hours, synergist alone; compound: C#CCOCc1ccc([N+](=O)[O-])c(Cl)c1 3

Form entry - test system: Rutgers A strain house flies; read-out: percent kill after 24 hours, synergist alone; compound: C#CCOCc1ccc([N+](=O)[O-])cc1 0

Form entry - test system: Rutgers A strain house flies; read-out: percent kill after 24 hours, synergist alone; compound: C#CCOCc1cccc([N+](=O)[O-])c1Cl 0

Form entry - test system: Rutgers A strain house flies; read-out: percent kill after 24 hours, synergist alone; compound: C#CCOCc1ccccc1[N+](=O)[O-] 0

Form entry - test system: Rutgers A strain house flies; read-out: percent kill after 24 hours, synergist alone; compound: C#CCOC(c1ccc(Cl)cc1)C(C)[N+](=O)[O-] (stereo not shown) 0

Form entry - test system: Rutgers A strain house flies; read-out: percent kill after 24 hours, synergist alone; compound: C#CCON=Cc1cccc([N+](=O)[O-])c1 0

Form entry - test system: Rutgers A strain house flies; read-out: percent kill after 24 hours, synergist alone; compound: C#CCOCc1c(Cl)cccc1Cl 7

----------
Field: percent kill after 24 hours, with GS 13005. Provide a value for each of the compounds that follow.
tested on: IN/WHO strain house flies; test: topical application, percent kill after 24 hours, susceptible IN/WHO strain; type: in vivo, female); settings: GS 13005 0.10 + synergist 0.50 μg/fly
Report as a plain number; the unit % is understood.

Please report the recorded percent kill after 24 hours, with GS 13005 for C#CCON=Cc1cccc([N+](=O)[O-])c1 . 73

Please report the recorded percent kill after 24 hours, with GS 13005 for C#CCOCc1ccccc1[N+](=O)[O-] . 96

Please report the recorded percent kill after 24 hours, with GS 13005 for C#CCOCc1ccc([N+](=O)[O-])c(Cl)c1 . 90

Please report the recorded percent kill after 24 hours, with GS 13005 for C#CCOCc1cccc(Cl)c1[N+](=O)[O-] . 99

Please report the recorded percent kill after 24 hours, with GS 13005 for C#CCOCc1c(Cl)cccc1[N+](=O)[O-] . 100

Please report the recorded percent kill after 24 hours, with GS 13005 for C#CCOCc1ccc(Cl)c([N+](=O)[O-])c1 . 79

Please report the recorded percent kill after 24 hours, with GS 13005 for C#CCON=C(C)c1ccc2ccccc2c1 . 45

Please report the recorded percent kill after 24 hours, with GS 13005 for C#CCOCc1cccc2ccccc12 . 68

Please report the recorded percent kill after 24 hours, with GS 13005 for C#CCOC(c1ccc(Cl)cc1)C(C)[N+](=O)[O-] (stereo not drawn) . 89

----------
Field: number of mice dead, with Dimetilan. Provide a value for each of the molecules that follow.
test system: Swiss albino, white male mice; assay: acute toxicity and synergism of acute toxicity in mice; format: in vivo; conditions: Dimetilan 8 + synergist 80 mg/kg i.p.; 48 hours; eight mice
Please give only the number in your answer, with no unit.

Please report the recorded number of mice dead, with Dimetilan for C#CCOCc1c(Cl)cccc1Cl . 0

Please report the recorded number of mice dead, with Dimetilan for CCOCCOCCOC(C)Oc1ccc2c(c1)OCO2 (centres unmarked) [Sesoxane, reference compound] . 8

Please report the recorded number of mice dead, with Dimetilan for C#CCON=C(C)c1ccc(Cl)cc1 . 1

Please report the recorded number of mice dead, with Dimetilan for C#CCOCc1cccc2ccccc12 . 0

Please report the recorded number of mice dead, with Dimetilan for C#CCOCc1ccc(Cl)c([N+](=O)[O-])c1 . 0
